# credit: the nanobody polyreactivity screen of Harvey et al. (2022)

- MEASUREMENT_PROTOCOL: yeast display, Sf9 membrane polyspecificity reagent, FACS + sequencing; frameworks hold sequencing errors
MEASURED_PARAMETER: polyreactivity (PSR sort gate)

Worked cases, answers included:
QVQLVESGGGLVQAGGSLRLSCAASGGTFKTNAMGWYRQAPGKERELVAAITGSGTSTYYADSVKGRFTISRDNAKNTVYLQMNSLKPEDTAVYYCAADKLYQPGIGDDYWGQGTQVTVSS: low polyreactivity
QVQLVESGGGLVQAGGSLRLSCAASGSTFGVNAMGWYRQAPGKERELVADMSFRTDSTYYADSVKGRFTISRDNAKNTVYLQMNRLNPEDTAVYYCAAEVPYYYPGFYSYYDDSDYWGQGTQVTVSS: low polyreactivity
QVQLVESGVGLVQAGGSLRLSCAASGSTFDYYVMGWYRQAPGKVRELVAAISETGDDTYYADSVKGRFTLSRDNAKNTVYLQINRLNPEDTAVYYCAADSYFYSGFVRRFYFWGQGSQVTVSS: high polyreactivity
QVQLVDSGGGLVQAGGSLRLSCAASGSTFYGYAMGWYRQAPGKERELVAAITSSGTRTYYADSVKGRITISRDNAKNSVYLQMNSLKPEDTAVYYCAADAPNFGLYRDKDYDYWGQGTQVTVSS: high polyreactivity

Now for the sequence whose polyreactivity (PSR sort gate) we want.
polyreactivity (PSR sort gate) recorded for this sequence, QVQLVESGGGLGQAGGSLRLSCAASGFIFQANAMGWYRQAPGKERELVAAIDDGDSTYADSVKGRFTISRDNAKNTVYLQMNSLKPEDTAVSYCAPRRNRSYDYWGQGTQVTVSS , is low polyreactivity

====

- MEASUREMENT_PROTOCOL: yeast display, Sf9 membrane polyspecificity reagent, FACS + sequencing; frameworks hold sequencing errors
MEASURED_PARAMETER: polyreactivity (PSR sort gate)

Examples with answers:
QVQLVESGGGLVQAGGSLRLSCAASGRTFGGYAMGWYRQAPGKERELVAAIRRSGGSTYYADSVKGRFTISRDNAKNTVYLQMNSLKPEDTAVYYCNVLRFSTGGYRYVYDYDYWGQGTQVTVSS: high polyreactivity
QVNLVESGVGLVQAGVSLRLSCAASGRIFQYYAMGWYRQATGKERELVAAISRSGGSTYYADSVKGRFTISRDNANNTVYLQMNSLKPEDTAVYYCAKVYRGFSYGYCGQGTQVTVSS: high polyreactivity
QVQLVESGGGLVQAGGSLRLSCAASGSTYYNTMGWYRQAPGKEREFVAAITWSTGTTYYADSVKGRFTISRDNAKNTVYLQMNSLKPEDTAVYYCATDDSRDWLNYWGQGTQVTVSS: low polyreactivity
QVQLVESGGGLVQAGGSLRVSCAASGLIFNTYAMGWYRQAPGKERELVAAITVGGGTNYADSVKGLFRISRDNAKNTVYLQMNSLNPADTAVYYCAARLASWPLTYDFQWYEYWGQGTQVTVSS: low polyreactivity
QVQLVESGGGLVQAGGSLRLSCAASGFILARNAMGWYRQAPGKERELVAAITRRGGSTYYADSVKGRFTISRDNAKNTVYLQMNSLKPEDTAVYYCAAAAGPIPQERYYWGQGTHVTVSS: high polyreactivity
QDQIVESCGGLVQAGGSLRLSCASSGNIIYPKAMGWYRQAPGKERDLVAAISTSRGSTYYADSVKGRFTISRDNAKNTVYLQMNSLKPEDTAVYYCNRRGPYGYKAWAIGTIGDLDYWGQGTQVTVSS: low polyreactivity

Measured polyreactivity (PSR sort gate), QVQLVESGGGLVQAGGSLRLSCAASGIIFSGYAMGWYRQAPGKERELVAVISSSGGGTYYADSVKGRFTISRDKAKNTVYLQMNSLIPEDTAVYYCAARGREAIHGYWGQGTQVTLSS : high polyreactivity

So for QVQLVESGGGLVQALGSLRLSCAASGTTFNSNVMGWYRPAPGKERELVAGNNTTYYADSVKGRFTISRDNAKNTVYLQMNSLKPEDTAVYYCNGSEDAPAIEYLAPDGHDGYWGQGTQVTVSS , the logged polyreactivity (PSR sort gate) turned out to be low polyreactivity
